# Tested on: UO-31 renal
# assay.protocol: NCI tumour cell line growth inhibition, 48 h
Reported TGI values follow for various compounds
Number in µM, nothing else.

Below: 3 compounds and their reported TGI.
CCOC(=O)c1sc2c(c1OC(=O)c1ccco1)c(=O)n(-c1ccccc1)c(=S)n2-c1ccccc1 :: 2.71
COc1cccc(/C=C2\COc3ccc(O)c(O)c3C2=O)c1OC :: 2.4
COc1cccc2c1C(=O)c1c(O)c3c(c(O)c1C2=O)C[C@@](O)(C(=O)CO)C[C@@H]3OC1CC2C(OCN2CN2COC3C(C)OC(O[C@H]4C[C@](O)(C(=O)CO)Cc5c(O)c6c(c(O)c54)C(=O)c4c(OC)cccc4C6=O)CC32)C(C)O1 (stereo not given in full) :: 0.0283

Kindly review the next compound as well.
QUERY: Field request: TGI | item: Nc1ccc(C(=O)NN2C(=O)C(Cl)C2c2ccc(O)cc2)cc1 (stereo not given)
RESULT: 57.9

---

# Tested on: UO-31 renal
# assay.protocol: NCI tumour cell line growth inhibition, 48 h
Item-by-item account of log10 TGI
Please keep in mind that the values are log10 of TGI expressed in µM.

CN(C)/C=N/S(=O)(=O)c1nn2c(C=O)c(-c3ccc(-c4ccccc4)cc3)nc2s1 :: 0.44

QUERY: Which measured log10 TGI value corresponds to O=[N+]([O-])c1cc2c(ccc3ccccc32)o1 ?
RESULT: 0.45

QUERY: Do the same for CCN(CC)CCNc1ccc2nc(C)n3c4ccc(OC)cc4c(=O)c1c23 please
RESULT: 1.21

QUERY: NC(=O)c1c(NC(=O)c2ccc(C(F)(F)F)cc2Cl)sc2c1CCC(=O)C2 , same question.
RESULT: -0.09

QUERY: Please do the same for CCOC(=O)c1nc2sc(Cl)cn2c1/C=N/N=C(N)N as well.
RESULT: 1.55

---

# System: HOP-62 NSCLC
# assay.protocol: NCI tumour cell line growth inhibition, 48 h
measured.endpoint: TGI

Previously resolved entries follow.
COc1ccc(/C=C2\CC3C4CC=C5C[C@@H](N6CCCC6)CC[C@]5(C)C4CC[C@]3(C)[C@H]2O)cc1OC (stereo not given in full) :: 12.3 µM
N#C/C(=C\c1ccccn1)c1nc2ccccc2o1 :: > 100 µM
CCOC(=O)C1=C(C)N(Cc2ccccc2)C2(O)C=CC(=O)C3C(=O)N(c4ccccc4)C(=O)C132 (stereo not given) :: 5.52 µM
CN(COC(=O)C(C)(C)C)c1nc(N(C)COC(=O)C(C)(C)C)nc(N(C)COC(=O)C(C)(C)C)n1 :: > 100 µM
COc1cc(Br)c(C=Nc2cccc3ccc(OS(=O)(=O)c4ccc([N+](=O)[O-])cc4)cc23)cc1OC :: > 100 µM

QUERY: Please look up its TGI: CC(C)(C)c1ccc(OCCCCCCCN2CCNCC2)cc1
RESULT: 2.92 µM

QUERY: What do you get for O=C1Sc2sc(=S)sc2SC1c1ccccc1 (stereo not given) ?
RESULT: > 100 µM

QUERY: Same thing, different molecule: CCN1C(c2ccccc2)=CC(c2ccccc2)(C(Cl)(Cl)Cl)C=C1c1ccccc1
RESULT: > 100 µM

QUERY: // repeat for CN(C)Cc1c[nH]c2nc[nH]c(=O)c12 and report
RESULT: > 100 µM

QUERY: What about CC[P+](C)(C)CC ?
RESULT: > 100 µM

---

# Tested on: 786-0 renal
# assay.protocol: NCI tumour cell line growth inhibition, 48 h
measured.endpoint: TGI

Use the examples below as a reference point.
CC1(C)C2CCC1(C)C(NC(=O)COCCOCC(N)=O)C2 (stereo unspecified) :: > 100 µM
c1ccc(CSCCC(SCc2ccccc2)SCc2ccccc2)cc1 :: > 10 µM
COc1ccccc1OC/C(N=Cc1cccnc1)=N/NC(=O)c1ccncc1 :: > 100 µM
CCOC(=O)c1c(C)n(Cc2ccc(Cl)cc2Cl)c2c1cc(O)c1[nH]c(Cc3ccccc3)nc12 :: 13.7 µM
O=C1/C(=C/c2ccc([N+](=O)[O-])cc2)Oc2cc(O)ccc21 :: 70.6 µM
COc1ccc(C(=O)c2[nH]c(Nc3cc(C)ccn3)c(C(=S)Nc3ccccc3)c2N)cc1 :: 49.7 µM
O=C(N/N=C\c1ccc([N+](=O)[O-])cc1)Nc1ccc2ccccc2c1 :: 32.7 µM
C1=C(c2ccccc2)NC2=N[C@H]3CCCC[C@@H]3N2C1c1ccccc1 (stereo partly specified) :: 30.7 µM
CCN1C(c2ccccc2)=CC(c2ccccc2)(C(Cl)(Cl)Cl)C=C1c1ccccc1 :: > 100 µM
O=S(=O)(c1ccccc1)C1(C2(S(=O)(=O)c3ccccc3)CCN=N2)CCN=N1 (stereo unspecified) :: > 100 µM

QUERY: Could you tell me which TGI is on file for CC(=O)OC1C(C)OC(Oc2c(-c3ccc(O)cc3)oc3cc(O)cc(O)c3c2=O)C(O)C1OC(C)=O (stereo unspecified) ?
RESULT: > 100 µM

QUERY: Check CC(C)CC1CC2C(=O)N(c3ccccc3)C(=O)C2c2[nH]c3ccccc3c21 (stereo unspecified) too.
RESULT: > 100 µM

QUERY: Similarly, CC[P+](C)(C)CC ?
RESULT: > 100 µM

---

Attribute: TGI
# Test system: TK-10 renal
# assay.protocol: NCI tumour cell line growth inhibition, 48 h

O=C1/C(=C/c2ccc([N+](=O)[O-])s2)Oc2ccc(Br)cc21 :: 4.66 µM

Here is the next item to consider.
QUERY: Name the reported TGI value associated with the compound O=C(NCCc1nccs1)c1cnc2c(S)cccc2c1
RESULT: 19.5 µM

---

# Tested on: HOP-92 NSCLC
# assay.protocol: NCI tumour cell line growth inhibition, 48 h
measured.endpoint: TGI (µM)
Numbers only here, please. The scale is µM.

COc1cc(Br)c(/C=N/N=C(\N)NO)cc1OC :: 90.5
COC(=O)c1ccc(C)cc1C1CN=NC12Cc1c(C)cccc1C2=O (stereo not given) :: 97

Next item in the queue.
QUERY: Form field - read-out: TGI; system: HOP-92 NSCLC; submitted item: C1=C(c2ccccc2)NC2=N[C@H]3CCCC[C@@H]3N2C1c1ccccc1 (stereo not given in full)
RESULT: 25.2

---

# System: HT29 colon
# assay.protocol: NCI tumour cell line growth inhibition, 48 h; in the data active means GI50 below about 0.43 µM; inactive means the rest
Pick one and only one: Y (active), N (inactive)

Past entries and their recorded results:
COc1cccc2c1C(=O)c1c(O)c3c(c(O)c1C2=O)C[C@@](O)(C(=O)CO)C[C@@H]3OC1CC2C(OCN2CN2COC3C(C)OC(O[C@H]4C[C@](O)(C(=O)CO)Cc5c(O)c6c(c(O)c54)C(=O)c4c(OC)cccc4C6=O)CC32)C(C)O1 (some centres not stated) :: Y
CCc1n(Cc2ccc3ccccc3c2)cc[n+]1Cc1ccc2ccccc2c1 :: N
N#C/C(=C\c1ccccn1)c1nc2ccccc2o1 :: N

QUERY: What classification did C=CC(=O)N1CCN(c2nc(OC[C@@H]3CCCN3C)nc3c(F)c(-c4nc(N)cc(C)c4C(F)(F)F)c(Cl)cc23)[C@@H](C)C1 end up with in this test?
RESULT: N

---

# System: SK-MEL-5 melanoma
# assay.protocol: NCI tumour cell line growth inhibition, 48 h; in the data active = GI50 below about 0.43 µM; inactive = the rest
Write down one outcome, taken from active, inactive

These solved cases illustrate the format of a correct answer.
COc1cc(/C=C2\CC3C4CC=C5C[C@@H](N6CCCC6)CC[C@]5(C)C4CC[C@]3(C)[C@H]2OC(C)=O)ccc1OCCCn1ccnc1 (stereo not given in full) :: active
CCOC(=O)CCC(NC(=O)c1ccc(Oc2nc3cc(N)cc(N)c3nc2-c2ccccc2)cc1)C(=O)OCC (stereo not given) :: inactive
N#C/C(=C\c1ccccn1)c1nc2ccccc2o1 :: inactive
COc1cccc(C2=C(c3cn(C)c4c(C)cccc34)C(=O)NC2=O)c1 :: inactive

Shift focus to the following entry.
QUERY: Can you look up the reported call for CCCOC(=O)C1C(c2ccc(OC)cc2)NC(c2ccc(OC)cc2)C(C(=O)OCCC)S1(=O)=O (stereo not given) for me?
RESULT: inactive

---

Known TGI of a selection of compounds
# Test system: IGROV1 ovarian
# assay.protocol: NCI tumour cell line growth inhibition, 48 h

Recorded results for 2 compounds are shown here.
Cc1nsc2cc(Cl)n(C)c(=O)c12 :: > 100 µM
CCOC(=O)c1ccc(N[C@@H]2c3cc4c(cc3C(c3cc(OC)c(O)c(OC)c3)[C@H]3C(=O)OCC32)OCO4)cc1 (some centres undefined) :: 10 µM

QUERY: Sample N#C/C(=C\c1ccccn1)c1nc2ccccc2o1 — what was its TGI?
RESULT: > 100 µM

QUERY: Now the compound CC(C)CC1C(=O)OC(C)(C)OC1=O
RESULT: > 100 µM

QUERY: Then this compound: CN1CC[C@@]2(c3cccc(O)c3)CC(=O)/C(=C/c3ccc(Cl)c(Cl)c3)[C@H]1C2
RESULT: 5.65 µM

Reference source for all entries: PubChem BioAssay (NCI)
